- System: Plasmodium berghei
- Protocol text: Luciferase/luciferin-expressing antifolate-resistant parasites were used to infect a culture of HepG2 cells that were pre-incubated with compounds. Infected hepatocytes emit light due to the luciferase reaction. Assay results are presented as the percent inhibition of light emission compared to control. […]
- Assay type: functional
- Test parameters: sporozoite, PBLUC_HILL_SLOPE 15.7, PBLUC_R_SQUARED 0.709, read-out: LUCIFERASE INFECTION ASSAY - IC50
pIC50: −log10 of the molar value.
Quantity: pIC50

[[record]]
smiles_repr = "O=C(c1cnc(Nc2cccc(C(F)(F)F)c2)[nH]1)c1ccccc1F"
value_measured = 5.04


---

- Test system: Plasmodium berghei
- Protocol text: Luciferase/luciferin-expressing antifolate-resistant parasites were used to infect a culture of HepG2 cells that were pre-incubated with compounds. Infected hepatocytes emit light due to the luciferase reaction. Assay results are presented as the percent inhibition of light emission compared to control. […]
- Assay type: functional
- Test parameters: sporozoite, PBLUC_HILL_SLOPE 3.49, PBLUC_R_SQUARED 0.314, read-out: LUCIFERASE INFECTION ASSAY - IC50
pIC50: −log10 of the molar value.
Quantity: pIC50

[[record]]
smiles_repr = "CC(C)c1ccc(CN(C(=O)Cc2c[nH]c3ccccc23)C2CC2)cc1"
value_measured = "< 5.00"


---

- Tested on: Plasmodium berghei
- Protocol text: Luciferase/luciferin-expressing antifolate-resistant parasites were used to infect a culture of HepG2 cells that were pre-incubated with compounds. Infected hepatocytes emit light due to the luciferase reaction. Assay results are presented as the percent inhibition of light emission compared to control. […]
- Assay type: functional
- Test parameters: sporozoite, FFLUC_HILL_SLOPE 12.2, FFLUC_R_SQUARED 0.489, PBLUC_HILL_SLOPE 1.92, PBLUC_R_SQUARED 0.281, read-out: LUCIFERASE INFECTION ASSAY - IC50
Quantity: IC50 (µM)

[[record]]
compound = "CCOc1ccc(-n2c(SC(C)C(=O)c3ccc(C(C)C)cc3C(C)C)nnc2-c2c[nH]c3ccccc23)cc1 (stereo unspecified)"
quantity = "IC50"
value_measured = 5.8


---

- System: Plasmodium berghei
- Protocol text: Luciferase/luciferin-expressing antifolate-resistant parasites were used to infect a culture of HepG2 cells that were pre-incubated with compounds. Infected hepatocytes emit light due to the luciferase reaction. Assay results are presented as the percent inhibition of light emission compared to control. […]
- Type: functional
- Test parameters: sporozoite, PBLUC_HILL_SLOPE 3.04, PBLUC_R_SQUARED 0.101, read-out: LUCIFERASE INFECTION ASSAY - IC50
Quantity: IC50 (µM)

[[record]]
molecule = "COc1ccc(CCN(C)CC(O)COc2ccc(C(C)(C)CC(C)(C)C)cc2)cc1OC (stereo unspecified)"
value_measured = 9.63


---

- Tested on: Plasmodium berghei
- Protocol text: Luciferase/luciferin-expressing antifolate-resistant parasites were used to infect a culture of HepG2 cells that were pre-incubated with compounds. Infected hepatocytes emit light due to the luciferase reaction. Assay results are presented as the percent inhibition of light emission compared to control. […]
- Format: functional
- Test parameters: sporozoite, PBLUC_HILL_SLOPE 1.69, PBLUC_R_SQUARED 0.173, read-out: LUCIFERASE INFECTION ASSAY - IC50
pIC50: −log10 of the molar value.
Quantity: pIC50

[[record]]
smiles_repr = "Clc1ccc(-c2csc3ncnc(Sc4nnc(N5CCOCC5)n4C4CC4)c23)cc1"
value_measured = 5.15

